System: mastocarcinoma
test.description: Inhibition of tumor growth in rats with mastocarcinoma after 7,12-dimethylbenzanthracene
Format: in vivo, Sprague-Dawley rats
condition.label: Rattus norvegicus, 600 h; female Sprague-Dawley rats; daily ip 20 mg/kg for 20 consecutive days; tumors weighed 5 days after last injection; read-out: I.R. (inhibition rate of tumor growth)
Description: Female Sprague-Dawley rates aged 50 days were orally given 7,12-dimethylbenzanthracene (15 mg/kg) and observed for two months. The rats that developed spontaneous mastocarcinoma were selected and divided into three groups of 15 animals. […] The tumors were weighed and the mean tumor weight (T) of the first and the second groups was calculated. The mean tumor weight (C) of the third group was also calculated. […]
For each of the molecules below, state its inhibition in vivo at 20 mg/kg.

# input Using the record for N#Cc1ccc(CC2CCCC2(O)Cn2ccnc2)cc1 (stereo not shown) , state its measured inhibition in vivo at 20 mg/kg.
# output 53%

# input Using the record for OC1(Cn2cncn2)CCCC1Cc1ccc(F)cc1F (stereo not shown) , state its measured inhibition in vivo at 20 mg/kg.
# output 72%

# input Using the record for CC(C)c1ccc(CC2CCC(C)(C)C2(O)Cn2ccnc2)cc1 (stereo not shown) , state its measured inhibition in vivo at 20 mg/kg.
# output 63%

# input Using the record for CC1(C)CCC(Cc2ccc(C(F)(F)F)cc2)C1(O)Cn1ccnc1 (stereo not shown) , state its measured inhibition in vivo at 20 mg/kg.
# output 63%

# input Using the record for CC(C)(C)c1ccc(CC2CCC(C)(C)C2(O)Cn2cncn2)cc1 (stereo not shown) , state its measured inhibition in vivo at 20 mg/kg.
# output 71%

For each of the molecules below, state inhibition in vivo at 20 mg/kg.
1. CC1(C)CCC(Cc2ccccc2-c2ccccc2)C1(O)Cn1ccnc1 (stereo not shown)
2. CC(C)c1ccc(CC2CCCC2(O)Cn2ccnc2)cc1 (stereo not shown)

# output
58%
72%

For each of the molecules below, state inhibition in vivo at 20 mg/kg.
1. CC(C)(C)c1ccc(CC2CCC(C)(C)C2(O)Cn2ccnc2)cc1 (stereo not shown)
2. N#Cc1ccc(CC2CCCC2(O)Cn2cncn2)cc1 (stereo not shown)
3. OC1(Cn2ccnc2)CCCC1Cc1ccc(F)cc1F (stereo not shown)

# output
1. 73%
2. 60%
3. 85%

// data source = patent US5286737A
